Quick reference: MIC of evolved line of the listed items.
test system: P. aeruginosa ATCC BAA-3107 (SEN) and P. aeruginosa LESB58 (MDR); assay: Frequency-of-resistance (FoR) assay, relative MIC of mutants; type: cell-based, Pseudomonas aeruginosa; settings: P. aeruginosa ATCC BAA 3107 (PA-SEN), evolved line 3
Where a SMILES comes first, the peptide text is derived from it. Bridges are numbered along the chain shown (N, C = ends). [ ]: non-standard residue; d: D form. The star is where a group is joined. X1 = NC[C@@H](CC(=O)*)c1cccc(Cl)c1; Dab = NCC[C@H](N)C(=O)O; Dap = NC[C@H](N)C(=O)O
Form field: result (number plus unit)

Previously resolved entries follow.
compound	result
CC(C)C[C@@H]1NC(=O)[C@@H](Cc2ccccc2)NC(=O)[C@H](CCN)NC(=O)[C@@H](NC(=O)[C@H](CN)NC(=O)[C@@H](NC(=O)C[C@H](CN)c2cccc(Cl)c2)[C@@H](C)O)CCNC(=O)[C@H]([C@@H](C)O)NC(=O)[C@H](CCN)NC(=O)[C@H](CCN)NC1=O [SPR206] (X1-T[Dap][Dab][Dab][dF]L[Dab][Dab]T; lactam 3-C (inferred); N-terminus assumed)	1 µg/mL
COc1c(N2C[C@@H]3CCCN[C@@H]3C2)c(F)cc2c(=O)c(C(=O)O)cn(C3CC3)c12 [Moxifloxacin]	32 µg/mL
C[C@@H](O)[C@H]1C(=O)N2C(C(=O)O)=C(S[C@@H]3CN[C@H](C(=O)N(C)C)C3)[C@H](C)[C@H]12 [Meropenem]	2 µg/mL
O=c1ccc2ncc(=O)n3c2n1C[C@H]3CN1CCC(NCc2cc3c(cn2)OCCC3)CC1 [Gepotidacin]	64 µg/mL
CN(C)[C@@H]1C(O)=C(C(N)=O)C(=O)[C@@]2(O)C(O)=C3C(=O)c4c(O)c(NC(=O)CN5CCCC5)cc(F)c4C[C@H]3C[C@@H]12 [Eravacycline]	32 µg/mL

Report its MIC of evolved line with P. aeruginosa ATCC BAA-3107 (SEN) and P. aeruginosa LESB58 (MDR) as the test system: Nc1nc(-n2cc(C(=O)O)c(=O)c3cc(F)c(N4CC(O)C4)c(Cl)c32)c(F)cc1F [Delafloxacin]
2 µg/mL

Return reported MIC of evolved line for target or system P. aeruginosa ATCC BAA-3107 (SEN) and P. aeruginosa LESB58 (MDR), item CNC(C)C1CCC(N)C(OC2C(N)CC(N)C(OC3OCC(C)(O)C(NC)C3O)C2O)O1 (stereo not shown) [Gentamicin] .
8 µg/mL
